Molecular target: Phosphodiesterase 4 (Homo sapiens, UniProt P27815+Q08499+Q07343+Q08493)
Assay: Inhibition of PDE4 activity in human PBMC assessed as inhibition of LPS-induced TNFalpha release after 18 hrs by ELISA
Examples of compounds with documented IC50 follow.
Could you give me the number in nM? Just the number is fine.

- structure: "COc1cc(NS(C)(=O)=O)cc(C(=O)O[C@@H](Cc2c(Cl)c[n+]([O-])cc2Cl)c2ccc(OC(F)F)c(OCC3CC3)c2)c1"
  test.readout: "IC50"
  quantity.unit: "nM"
  recorded.value: 0.13
- structure: "COc1ccc(C(=O)O[C@@H](Cc2c(Cl)c[n+]([O-])cc2Cl)c2ccc(OC(F)F)c(OCC3CC3)c2)cc1OC"
  test.readout: "IC50"
  quantity.unit: "nM"
  recorded.value: 0.12
- structure: "[O-][n+]1cc(Cl)c(C[C@H](O)c2ccc(OC(F)F)c(OCC3CC3)c2)c(Cl)c1"
  test.readout: "IC50"
  quantity.unit: "nM"
  recorded.value: 479

Let's switch to this compound now.
Lab note: O=C(O[C@@H](Cc1c(Cl)c[n+]([O-])cc1Cl)c1ccc(OC(F)F)c(OCC2CC2)c1)c1ccc(Cl)cc1 gave IC50 of 1.85
